Reference source: BigSolDB 2.1

# test.conditions: in n-propanol, 318.15 K
parameter.measured: solubility (mole fraction)

What the record says about O=C(O)c1ccccc1O : solubility (mole fraction) is 0.196

====

# test.conditions: in n-butanol, 288.15 K
parameter.measured: solubility (mole fraction)

Value of measured solubility (mole fraction) for the entry O=C(O)c1ccccc1O : 0.126

====

# test.conditions: in n-hexanol, 278.15 K
parameter.measured: solubility (mole fraction)
One number for each entry.

For record O=C(O)c1ccccc1O the listed solubility (mole fraction) is 0.116

====

# test.conditions: in n-pentanol, 283.15 K
parameter.measured: solubility (mole fraction)
Give bare numbers.

Record O=C(O)c1ccccc1O , field solubility (mole fraction): 0.123
